Target: Alpha-2C adrenergic receptor (Homo sapiens, UniProt P18825); further: assay procedure not described here
Sequence (P18825 whole entry): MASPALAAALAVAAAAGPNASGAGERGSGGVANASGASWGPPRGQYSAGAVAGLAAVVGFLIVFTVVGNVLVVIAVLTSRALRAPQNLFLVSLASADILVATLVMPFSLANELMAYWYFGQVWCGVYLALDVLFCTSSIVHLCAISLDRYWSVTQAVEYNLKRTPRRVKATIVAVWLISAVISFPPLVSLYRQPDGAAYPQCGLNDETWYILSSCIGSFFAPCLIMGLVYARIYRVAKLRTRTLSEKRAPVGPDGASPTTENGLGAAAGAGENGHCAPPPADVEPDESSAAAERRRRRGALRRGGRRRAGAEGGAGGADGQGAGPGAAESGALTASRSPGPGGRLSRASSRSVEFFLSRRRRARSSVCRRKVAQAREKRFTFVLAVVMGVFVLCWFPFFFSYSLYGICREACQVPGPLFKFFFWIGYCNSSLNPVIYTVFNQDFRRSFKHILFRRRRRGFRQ
Assay type: functional
QUANTITY MEASURED: AC50

Value sought: AC50, system Alpha-2C adrenergic receptor (Homo sapiens, UniProt P18825), item Cc1cn([C@H]2C[C@H](N=[N+]=[N-])[C@@H](CO)O2)c(=O)[nH]c1=O [ZIDOVUDINE] . Result: > 10 µM

Form: item CN1C(=O)CCS(=O)(=O)C1c1ccc(Cl)cc1 (configuration not stated) [CHLORMEZANONE] ; test system Alpha-2C adrenergic receptor (Homo sapiens, UniProt P18825); AC50: > 30 µM

NCC[C@H](O)C(=O)N[C@@H]1C[C@H](N)[C@@H](O[C@H]2O[C@H](CN)[C@@H](O)[C@H](O)[C@H]2O)[C@H](O)[C@H]1O[C@H]1O[C@H](CO)[C@@H](O)[C@H](N)[C@H]1O [AMIKACIN] tested on Alpha-2C adrenergic receptor (Homo sapiens, UniProt P18825) gave AC50: > 10 µM

Record CC(CC1c2ccccc2CCc2ccccc21)CN(C)C (configuration not stated) [BUTRIPTYLINE] / Alpha-2C adrenergic receptor (Homo sapiens, UniProt P18825), AC50 recorded as 6.9 µM

Tested system Alpha-2C adrenergic receptor (Homo sapiens, UniProt P18825); AC50 recorded for COc1ccc(-c2ccc3cc(C(=O)O)ccc3c2)cc1C12CC3CC(CC(C3)C1)C2 was > 30 µM

Alpha-2C adrenergic receptor (Homo sapiens, UniProt P18825) AC50 of COc1ccc(CCNCC(O)COc2cccc(C)c2)cc1OC (configuration not stated) [BEVANTOLOL] is 9.4 µM

Item CC[C@H]1[C@@H](O)[C@@H]2[C@H](CC[C@]3(C)[C@@H]([C@H](C)CCC(=O)O)CC[C@@H]23)[C@@]2(C)CC[C@@H](O)C[C@@H]12 [OBETICHOLIC ACID] was tested on Alpha-2C adrenergic receptor (Homo sapiens, UniProt P18825); the reported AC50 is > 30 µM
